# credit: patent US20210238260

For each of the proteins below, state its % of WT kcat/KM.
measurement.target: Factor X, P00742
Sequence (P00742 whole entry, looked up): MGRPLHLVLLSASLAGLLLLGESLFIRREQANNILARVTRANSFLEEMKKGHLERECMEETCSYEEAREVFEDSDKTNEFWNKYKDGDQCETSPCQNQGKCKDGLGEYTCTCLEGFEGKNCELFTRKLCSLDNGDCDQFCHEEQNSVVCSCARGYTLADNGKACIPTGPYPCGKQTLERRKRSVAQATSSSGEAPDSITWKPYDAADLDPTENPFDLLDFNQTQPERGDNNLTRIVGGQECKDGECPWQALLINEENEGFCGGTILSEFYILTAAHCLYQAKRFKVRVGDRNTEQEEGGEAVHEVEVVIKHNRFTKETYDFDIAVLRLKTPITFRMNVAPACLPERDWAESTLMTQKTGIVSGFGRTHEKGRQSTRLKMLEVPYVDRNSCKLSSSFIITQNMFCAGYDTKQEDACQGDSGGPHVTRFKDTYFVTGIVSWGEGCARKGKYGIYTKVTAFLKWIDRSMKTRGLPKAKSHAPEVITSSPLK
Form entry: value (%) — number only.

## Task Fill in % of WT kcat/KM for record FIXa Y155F/N260S/R318Y/R338E/R403E/E410N (protein) chain 1: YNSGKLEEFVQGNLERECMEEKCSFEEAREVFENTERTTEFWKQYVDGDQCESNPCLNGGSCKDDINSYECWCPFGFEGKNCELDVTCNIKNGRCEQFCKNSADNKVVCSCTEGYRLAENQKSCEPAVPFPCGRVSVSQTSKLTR chain 2: VVGGEDAKPGQFPWQVVLNGKVDAFCGGSIVNEKWIVTAAHCVETGVKITVVAGEHNIEETEHTEQKRNVIRIIPHHNYSAAINKYNHDIALLELDEPLVLNSYVTPICIADKEYTNIFLKFGSGYVSGWGRVFHKGYSALVLQYLRVPLVDRATCLESTKFTIYNNMFCAGFHEGGRDSCQGDSGGPHVTEVEGTSFLTGIISWGEECAMKGKYGIYTKVSEYVNWIKNKTKLT
## Result 152

## Task Indicate the recorded % of WT kcat/KM value for this protein: FIXa-R338E/T343R/R403E/E410N (protein) chain 1: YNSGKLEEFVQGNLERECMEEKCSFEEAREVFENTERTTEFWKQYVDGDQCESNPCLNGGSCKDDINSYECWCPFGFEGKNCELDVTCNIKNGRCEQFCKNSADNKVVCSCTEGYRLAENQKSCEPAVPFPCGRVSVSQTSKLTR chain 2: VVGGEDAKPGQFPWQVVLNGKVDAFCGGSIVNEKWIVTAAHCVETGVKITVVAGEHNIEETEHTEQKRNVIRIIPHHNYNAAINKYNHDIALLELDEPLVLNSYVTPICIADKEYTNIFLKFGSGYVSGWGRVFHKGRSALVLQYLRVPLVDRATCLESTKFRIYNNMFCAGFHEGGRDSCQGDSGGPHVTEVEGTSFLTGIISWGEECAMKGKYGIYTKVSEYVNWIKNKTKLT
## Result 650

## Task Return the recorded % of WT kcat/KM value; entry: FIXa Y155F/K247N/N249S/N260S (protein) chain 1: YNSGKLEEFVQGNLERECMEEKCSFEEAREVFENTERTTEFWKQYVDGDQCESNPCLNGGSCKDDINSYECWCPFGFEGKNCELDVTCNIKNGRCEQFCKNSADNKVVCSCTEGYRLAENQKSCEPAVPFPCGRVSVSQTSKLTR chain 2: VVGGEDAKPGQFPWQVVLNGKVDAFCGGSIVNEKWIVTAAHCVETGVKITVVAGEHNIEETEHTEQNRSVIRIIPHHNYSAAINKYNHDIALLELDEPLVLNSYVTPICIADKEYTNIFLKFGSGYVSGWGRVFHKGRSALVLQYLRVPLVDRATCLRSTKFTIYNNMFCAGFHEGGRDSCQGDSGGPHVTEVEGTSFLTGIISWGEECAMKGKYGIYTKVSRYVNWIKEKTKLT
## Result 42

## Task For the protein FIXa-D104N/K106S/I251S/R318Y/R338E/E410N (protein) chain 1: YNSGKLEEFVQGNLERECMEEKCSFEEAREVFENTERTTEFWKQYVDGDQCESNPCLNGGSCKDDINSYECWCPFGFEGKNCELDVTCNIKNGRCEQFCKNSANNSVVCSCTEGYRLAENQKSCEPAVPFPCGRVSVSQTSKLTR chain 2: VVGGEDAKPGQFPWQVVLNGKVDAFCGGSIVNEKWIVTAAHCVETGVKITVVAGEHNIEETEHTEQKRNVSRIIPHHNYNAAINKYNHDIALLELDEPLVLNSYVTPICIADKEYTNIFLKFGSGYVSGWGRVFHKGYSALVLQYLRVPLVDRATCLESTKFTIYNNMFCAGFHEGGRDSCQGDSGGPHVTEVEGTSFLTGIISWGEECAMKGKYGIYTKVSRYVNWIKNKTKLT , give its reported % of WT kcat/KM.
## Result 300

## Task Look up and report measured % of WT kcat/KM for this entry: FIXa-D104N/K106S/K247N/N249S/R318Y/R338E/R403E/E410N (protein) chain 1: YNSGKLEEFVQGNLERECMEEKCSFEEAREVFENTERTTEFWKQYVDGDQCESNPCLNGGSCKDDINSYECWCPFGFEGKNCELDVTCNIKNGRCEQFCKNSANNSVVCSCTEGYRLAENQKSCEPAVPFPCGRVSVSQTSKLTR chain 2: VVGGEDAKPGQFPWQVVLNGKVDAFCGGSIVNEKWIVTAAHCVETGVKITVVAGEHNIEETEHTEQNRSVIRIIPHHNYNAAINKYNHDIALLELDEPLVLNSYVTPICIADKEYTNIFLKFGSGYVSGWGRVFHKGYSALVLQYLRVPLVDRATCLESTKFTIYNNMFCAGFHEGGRDSCQGDSGGPHVTEVEGTSFLTGIISWGEECAMKGKYGIYTKVSEYVNWIKNKTKLT
## Result 197

## Task Supply measured % of WT kcat/KM of FIXa-Y155F/R338E/T343R/R403E/E410N (protein) chain 1: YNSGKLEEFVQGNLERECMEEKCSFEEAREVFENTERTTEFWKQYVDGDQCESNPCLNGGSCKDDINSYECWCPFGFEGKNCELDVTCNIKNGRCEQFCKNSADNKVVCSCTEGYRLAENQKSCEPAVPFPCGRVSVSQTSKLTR chain 2: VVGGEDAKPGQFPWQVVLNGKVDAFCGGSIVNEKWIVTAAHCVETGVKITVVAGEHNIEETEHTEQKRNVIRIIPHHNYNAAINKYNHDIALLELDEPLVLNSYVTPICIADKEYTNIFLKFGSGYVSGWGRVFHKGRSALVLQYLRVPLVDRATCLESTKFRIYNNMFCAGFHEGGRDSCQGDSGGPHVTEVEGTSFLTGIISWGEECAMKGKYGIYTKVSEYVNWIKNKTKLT in your reply.
## Result 524

## Task Give reported % of WT kcat/KM value for FIXa R318Y/R338E/T343R/N346Y/R403E/E410N (protein) chain 1: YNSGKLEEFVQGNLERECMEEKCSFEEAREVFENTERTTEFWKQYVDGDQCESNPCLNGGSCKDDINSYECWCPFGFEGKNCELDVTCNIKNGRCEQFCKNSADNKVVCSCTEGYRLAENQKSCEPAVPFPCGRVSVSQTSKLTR chain 2: VVGGEDAKPGQFPWQVVLNGKVDAFCGGSIVNEKWIVTAAHCVETGVKITVVAGEHNIEETEHTEQKRNVIRIIPHHNYNAAINKYNHDIALLELDEPLVLNSYVTPICIADKEYTNIFLKFGSGYVSGWGRVFHKGYSALVLQYLRVPLVDRATCLESTKFRIYYNMFCAGFHEGGRDSCQGDSGGPHVTEVEGTSFLTGIISWGEECAMKGKYGIYTKVSEYVNWIKNKTKLT
## Result 663
